# targetEntity: native human ESRRG protein (Homo sapiens)
# Sequence (P62508 whole entry): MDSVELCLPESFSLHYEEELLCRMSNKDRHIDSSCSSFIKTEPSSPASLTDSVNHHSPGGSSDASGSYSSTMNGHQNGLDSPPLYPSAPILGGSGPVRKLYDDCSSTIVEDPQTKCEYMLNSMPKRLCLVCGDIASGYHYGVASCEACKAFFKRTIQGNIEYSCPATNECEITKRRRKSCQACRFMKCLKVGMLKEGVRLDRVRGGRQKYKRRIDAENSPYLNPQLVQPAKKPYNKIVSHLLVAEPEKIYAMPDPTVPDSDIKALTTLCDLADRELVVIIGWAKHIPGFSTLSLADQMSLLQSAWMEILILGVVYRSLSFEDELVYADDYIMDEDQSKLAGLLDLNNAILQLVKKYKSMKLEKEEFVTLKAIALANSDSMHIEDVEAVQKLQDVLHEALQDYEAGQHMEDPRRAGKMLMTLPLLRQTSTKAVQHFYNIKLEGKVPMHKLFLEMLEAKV
# method: peptide microarray screening for ESRRG binding (Iteration 1 and 2)
# appliedConditions: Iteration 1 primary screen; fluorescence intensity units
Here the recorded Sample B (Probe) Signal is given for each entry.
testReadout: Sample B (Probe) Signal

substance	targetEntity	measuredValue
Ac-NSLRKHLL-NH2 (C-terminus assumed)	native human ESRRG protein (Homo sapiens)	856.14
Ac-ANNSRLLH-NH2 (C-terminus assumed)	native human ESRRG protein (Homo sapiens)	1,480.35
Ac-AANMFLLL-NH2 (C-terminus assumed)	native human ESRRG protein (Homo sapiens)	1,752.81
Ac-NSLLKHLL-NH2 (C-terminus assumed)	native human ESRRG protein (Homo sapiens)	14,810.16
NSLLQHLL	native human ESRRG protein (Homo sapiens)	9,739.76
ANNSKLLH	native human ESRRG protein (Homo sapiens)	1,009.30
ANNILLLH	native human ESRRG protein (Homo sapiens)	1,093.06
ANNVLLLH	native human ESRRG protein (Homo sapiens)	1,997.75
KSLLQQLL	native human ESRRG protein (Homo sapiens)	7,385.40
ANNLQLLH	native human ESRRG protein (Homo sapiens)	1,537.71
Ac-AIRGALMG-NH2 (C-terminus assumed)	native human ESRRG protein (Homo sapiens)	851.06
ANNLWLLH	native human ESRRG protein (Homo sapiens)	1,606.54
AANMYLLL	native human ESRRG protein (Homo sapiens)	4,011.85
Ac-IKQDHNNS-NH2 (C-terminus assumed)	native human ESRRG protein (Homo sapiens)	701.08
AANYILLL	native human ESRRG protein (Homo sapiens)	2,012.02
Ac-LLHSSKSQ-NH2 (C-terminus assumed)	native human ESRRG protein (Homo sapiens)	819.16
NSLSWHLL	native human ESRRG protein (Homo sapiens)	1,042.20
